Target: Calcium/calmodulin-dependent protein kinase type II subunit delta (Homo sapiens) (UniProt Q13557);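 also: percent inhibition values are means, taken from the GSK PKIS kinase profiling set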
Sequence (Q13557 whole entry): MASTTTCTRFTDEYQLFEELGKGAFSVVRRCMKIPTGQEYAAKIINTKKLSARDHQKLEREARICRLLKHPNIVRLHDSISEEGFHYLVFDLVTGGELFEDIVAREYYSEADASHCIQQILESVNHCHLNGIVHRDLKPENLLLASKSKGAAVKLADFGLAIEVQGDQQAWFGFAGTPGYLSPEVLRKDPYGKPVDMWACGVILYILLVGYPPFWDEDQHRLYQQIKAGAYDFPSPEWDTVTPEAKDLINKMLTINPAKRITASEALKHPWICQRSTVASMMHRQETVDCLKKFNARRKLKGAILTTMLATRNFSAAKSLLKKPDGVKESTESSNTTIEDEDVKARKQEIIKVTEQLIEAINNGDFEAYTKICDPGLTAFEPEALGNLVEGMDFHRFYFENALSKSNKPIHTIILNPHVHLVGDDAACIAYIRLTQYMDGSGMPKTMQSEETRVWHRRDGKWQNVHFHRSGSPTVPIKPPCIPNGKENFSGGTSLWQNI
Conditions: at 0.1 µM
Endpoint: inhibition (%)
Please respond with the number in % and leave the unit unwritten.

{"columns": ["Compound", "Value unit", "inhibition"],
 "data": [
  ["CN1CCC(C(=O)Nc2n[nH]c3nnc(-c4ccccc4)cc23)CC1", "%", 3.23],
  ["CC1=C(C(=O)Nc2ccc3[nH]ncc3c2)C(c2ccc(Cl)c(Cl)c2)CC(=O)N1 (stereo not given)", "%", 2.72]
]}

// inhibition value for Nc1nc(-c2ccccn2)c(-c2ccc3ncccc3n2)s1 : 0.62

// inhibition value for COc1cc(C)c(NC(=O)CN(C)C)cc1Nc1nc(Nc2cccc(F)c2C(N)=O)c2cc[nH]c2n1 : 4.57

// inhibition value for Cn1cc(C=C2C(=O)Nc3cccnc32)c2ccccc21 : 2.44

// inhibition value for [O-][S+]1CCN(Cc2ccc(-c3ccc4ncnc(Nc5ccc(OCc6ccccc6)c(F)c5)c4c3)o2)CC1 : 2.36

// inhibition value for NS(=O)(=O)c1cccc(-c2ccc3c(NC(=O)C4CC4)n[nH]c3c2)c1 : -2.03

// inhibition value for COc1cc2ncn(-c3cc(O[C@@H](C)c4ccccc4Cl)c(C(N)=O)s3)c2cc1OC : 2.63

// inhibition value for Nc1nc(-c2ccc3c(c2)C(=Cc2cc(Br)c(O)c(Br)c2)C(=O)N3)cs1 : -2.31

// inhibition value for COc1ccc2cc(-c3c(-c4ccncc4)nc(-c4ccc([S+](C)[O-])cc4)n3C)ccc2c1 (stereo not given) : 2.81

* * *

Target: Tyrosine-protein kinase Blk (Homo sapiens) (UniProt P51451);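 also: reported value is the mean percent inhibition of BLK kinase activity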
Sequence (P51451 2-505 limits assumed): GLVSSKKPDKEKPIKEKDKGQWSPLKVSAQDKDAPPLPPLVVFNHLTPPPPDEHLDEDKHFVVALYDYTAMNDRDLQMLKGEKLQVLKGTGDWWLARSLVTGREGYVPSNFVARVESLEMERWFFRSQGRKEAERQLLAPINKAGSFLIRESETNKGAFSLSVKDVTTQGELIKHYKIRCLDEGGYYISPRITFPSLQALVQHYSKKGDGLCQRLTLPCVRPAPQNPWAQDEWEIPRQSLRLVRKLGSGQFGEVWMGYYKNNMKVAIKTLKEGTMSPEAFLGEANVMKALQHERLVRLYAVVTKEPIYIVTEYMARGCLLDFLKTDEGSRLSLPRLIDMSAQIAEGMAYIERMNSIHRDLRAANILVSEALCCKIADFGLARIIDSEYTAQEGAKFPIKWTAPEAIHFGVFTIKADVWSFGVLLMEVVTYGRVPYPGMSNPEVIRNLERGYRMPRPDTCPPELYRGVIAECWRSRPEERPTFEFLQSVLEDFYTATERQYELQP
Conditions: at 0.1 µM
Each record here notes measured inhibition.
Please respond with the number in % and leave the unit unwritten.

Worked set:
{"columns": ["Compound", "Assayed system", "Experimental value"],
 "data": [
  ["CS(=O)(=O)CCNCc1ccc(-c2ccc3ncnc(Nc4ccc(OCc5ccccc5)c(Cl)c4)c3c2)o1", "Tyrosine-protein kinase Blk (Homo sapiens) (UniProt P51451)", 0.85],
  ["COc1cc2ncn(-c3cc(OCc4ccccc4C(F)(F)F)c(C(N)=O)s3)c2cc1OC", "Tyrosine-protein kinase Blk (Homo sapiens) (UniProt P51451)", 1.67],
  ["COc1ccc(-c2nn3ncccc3c2-c2ccnc(Nc3ccc(Cl)c(C(F)(F)F)c3)n2)cc1", "Tyrosine-protein kinase Blk (Homo sapiens) (UniProt P51451)", 1.79]
]}

// inhibition value for CS(=O)(=O)CCN(CC#N)Cc1ccc(-c2ccc3ncnc(Nc4ccc(OCc5cccc(F)c5)c(Cl)c4)c3c2)o1 : -2.59

// inhibition value for COc1ccc(-c2coc3ncnc(N)c23)cc1 : 1.6

// inhibition value for CC1=C(C(=O)Nc2ccc3[nH]ncc3c2)C(c2ccc(Cl)c(Cl)c2)CC(=O)N1 (stereo unspecified) : 1.97

// inhibition value for CCc1cccc(NC(=O)Nc2ccc(Oc3ccc4nc(NC(=O)OC)[nH]c4c3)cc2)c1 : 2.34

// inhibition value for Cc1nnc(-c2ccc(C)c(-c3ccc(C(=O)Nc4cccc(C#N)c4)cc3)c2)o1 : 2.41

* * *

Test system: Proto-oncogene tyrosine-protein kinase receptor Ret (Homo sapiens), P07949 [V804L]
Sequence (P07949 whole entry V804L): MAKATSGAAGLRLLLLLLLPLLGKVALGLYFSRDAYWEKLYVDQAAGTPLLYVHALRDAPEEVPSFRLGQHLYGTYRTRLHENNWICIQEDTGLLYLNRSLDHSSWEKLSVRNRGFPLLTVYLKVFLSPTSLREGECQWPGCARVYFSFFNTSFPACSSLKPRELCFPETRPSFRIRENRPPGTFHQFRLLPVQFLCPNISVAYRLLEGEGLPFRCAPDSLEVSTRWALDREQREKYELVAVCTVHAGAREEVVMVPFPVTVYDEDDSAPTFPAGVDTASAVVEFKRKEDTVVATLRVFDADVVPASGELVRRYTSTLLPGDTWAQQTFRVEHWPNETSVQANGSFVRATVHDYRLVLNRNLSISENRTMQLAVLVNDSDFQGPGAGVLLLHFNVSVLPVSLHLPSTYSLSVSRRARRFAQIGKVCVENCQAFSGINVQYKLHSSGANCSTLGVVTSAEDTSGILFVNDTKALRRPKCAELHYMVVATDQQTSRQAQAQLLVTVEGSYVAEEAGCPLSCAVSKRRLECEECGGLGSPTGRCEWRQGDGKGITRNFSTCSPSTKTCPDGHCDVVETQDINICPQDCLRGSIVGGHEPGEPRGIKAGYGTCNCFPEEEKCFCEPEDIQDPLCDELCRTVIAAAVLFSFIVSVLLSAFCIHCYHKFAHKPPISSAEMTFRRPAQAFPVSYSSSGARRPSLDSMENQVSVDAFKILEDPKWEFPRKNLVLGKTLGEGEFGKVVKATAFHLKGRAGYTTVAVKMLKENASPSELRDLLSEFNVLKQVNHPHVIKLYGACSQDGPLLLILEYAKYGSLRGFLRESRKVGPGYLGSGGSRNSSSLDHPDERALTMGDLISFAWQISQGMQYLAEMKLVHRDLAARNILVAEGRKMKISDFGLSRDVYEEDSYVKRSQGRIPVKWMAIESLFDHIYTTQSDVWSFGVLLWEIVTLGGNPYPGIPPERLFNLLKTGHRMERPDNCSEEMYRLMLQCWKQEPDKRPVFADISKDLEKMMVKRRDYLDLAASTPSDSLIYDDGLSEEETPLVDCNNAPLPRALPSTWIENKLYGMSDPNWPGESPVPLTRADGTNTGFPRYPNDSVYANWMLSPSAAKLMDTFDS
Details: at 0.1 µM
Response key: 1.0 means inhibition >= 4%; 0.0 means inhibition < 4%.

{"columns": ["Molecule", "Group"],
 "data": [
  ["CCCN1CCC=C(c2ccc(Nc3nc(Nc4ccccc4C(N)=O)c4cc[nH]c4n3)c(C)c2)C1", 1.0]
]}

In: Say whether COc1ccc(-c2ccncc2)cc1C(N)=O shows inhibition of 4% or more.
Out: 0.0

In: Say whether O=C(Nc1n[nH]c2nc(-c3ccco3)c(Br)cc12)C1CC1 shows inhibition of 4% or more.
Out: 1.0

In: Say whether CCn1c(-c2nonc2N)nc2c(C#CC(C)(C)O)nc(OC[C@@H](N)c3ccccc3)cc21 shows inhibition of 4% or more.
Out: 0.0

In: Say whether COc1cc2c(cc1Nc1nc(N3CCc4ccccc43)c3cc[nH]c3n1)N(C(=O)CN(C)C)CC2 shows inhibition of 4% or more.
Out: 0.0

In: Say whether CCn1c(-c2nonc2N)nc2c(C#CC(C)(C)O)nc(CN3CCCC3)cc21 shows inhibition of 4% or more.
Out: 0.0

In: Say whether Cc1ccc(C(=O)NC2CCCCC2)cc1-c1ccc(C(=O)NCC2CC2)cc1 shows inhibition of 4% or more.
Out: 1.0

In: Say whether COc1ccc(COc2ccc(Cc3cnc(N)nc3N)cc2OC)cc1 shows inhibition of 4% or more.
Out: 1.0

In: Say whether CNC(=O)c1cncc(/C=C/c2c(Cl)cccc2Cl)c1 shows inhibition of 4% or more.
Out: 0.0

In: Say whether CC1=C(C(=O)Nc2ccc3[nH]ncc3c2)C(c2ccc(Cl)c(Cl)c2)CC(=O)N1 (configuration not stated) shows inhibition of 4% or more.
Out: 0.0

In: Say whether Fc1cccc(COc2ccc(Nc3ncnc4sc(-c5cccs5)cc34)cc2Cl)c1 shows inhibition of 4% or more.
Out: 0.0

In: Say whether CN1CCC(C(=O)Nc2n[nH]c3nnc(-c4ccccc4)cc23)CC1 shows inhibition of 4% or more.
Out: 1.0

In: Say whether CCc1cccc(NC(=O)Nc2ccc(Oc3ccc4nc(NC(=O)OC)[nH]c4c3)cc2)c1 shows inhibition of 4% or more.
Out: 1.0

* * *

Target: Insulin receptor-related protein (Homo sapiens) (UniProt P14616);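 also: each reported figure is the mean of the IRR inhibition readings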
Sequence (P14616 27-742 limits assumed): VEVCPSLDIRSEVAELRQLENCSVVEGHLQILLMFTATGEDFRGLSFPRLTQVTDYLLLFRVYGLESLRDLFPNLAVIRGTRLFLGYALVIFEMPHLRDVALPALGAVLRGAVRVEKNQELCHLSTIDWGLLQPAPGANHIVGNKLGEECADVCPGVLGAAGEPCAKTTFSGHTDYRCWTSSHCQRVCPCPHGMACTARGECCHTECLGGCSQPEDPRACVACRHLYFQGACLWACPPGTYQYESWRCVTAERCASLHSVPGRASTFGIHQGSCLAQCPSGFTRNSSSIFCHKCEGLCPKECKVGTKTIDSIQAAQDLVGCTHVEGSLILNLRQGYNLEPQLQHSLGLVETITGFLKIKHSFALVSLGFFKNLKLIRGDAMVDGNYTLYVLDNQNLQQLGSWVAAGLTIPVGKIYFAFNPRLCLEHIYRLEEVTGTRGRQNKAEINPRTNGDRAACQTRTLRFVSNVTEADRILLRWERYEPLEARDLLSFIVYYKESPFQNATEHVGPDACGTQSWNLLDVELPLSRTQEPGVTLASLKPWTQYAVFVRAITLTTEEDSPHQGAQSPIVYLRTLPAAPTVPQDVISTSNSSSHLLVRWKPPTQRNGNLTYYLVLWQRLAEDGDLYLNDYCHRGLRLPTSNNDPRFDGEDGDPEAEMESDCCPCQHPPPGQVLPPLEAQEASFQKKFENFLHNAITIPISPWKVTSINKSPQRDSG
Sequence (P14616 747-1297 limits assumed): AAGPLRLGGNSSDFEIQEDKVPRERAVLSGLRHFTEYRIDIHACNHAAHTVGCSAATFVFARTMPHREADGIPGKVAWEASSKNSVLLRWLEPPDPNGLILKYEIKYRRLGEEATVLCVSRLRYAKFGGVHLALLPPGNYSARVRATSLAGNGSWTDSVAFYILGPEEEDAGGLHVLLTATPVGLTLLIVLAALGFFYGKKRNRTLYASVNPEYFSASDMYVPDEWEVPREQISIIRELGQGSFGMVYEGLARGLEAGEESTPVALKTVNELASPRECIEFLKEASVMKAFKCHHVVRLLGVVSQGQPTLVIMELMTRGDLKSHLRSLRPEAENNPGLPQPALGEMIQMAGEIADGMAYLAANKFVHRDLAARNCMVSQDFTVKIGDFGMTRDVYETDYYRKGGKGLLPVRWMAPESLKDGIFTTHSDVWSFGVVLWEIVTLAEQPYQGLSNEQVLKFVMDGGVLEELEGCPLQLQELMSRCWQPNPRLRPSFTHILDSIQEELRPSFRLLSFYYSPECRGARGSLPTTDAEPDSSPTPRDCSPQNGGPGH
Conditions: at 1 µM
Endpoint: inhibition (%)
Please respond with the number in % and leave the unit unwritten.

{"columns": ["Compound", "Experimental value"],
 "data": [
  ["Cc1ccc(NC(=O)c2ccnc(N3CCCC3)c2)cc1-c1ccc(C(=O)NCC2CC2)cc1", 2.2],
  ["COc1ccc(-c2nn3ncccc3c2-c2ccnc(Nc3ccc(Cl)c(C(F)(F)F)c3)n2)cc1", 1.11],
  ["O=C1NC(=O)C(c2ccccc2Cl)=C1Nc1cccc(O)c1", 2.14],
  ["Cc1cc(O)cc(C)c1/C=C/c1cncc(-c2nn[nH]n2)c1", 2.21],
  ["COc1ccc2cc(-c3c(-c4ccncc4)nc(-c4ccc([S+](C)[O-])cc4)n3C)ccc2c1 (centres undefined)", 1.11],
  ["COC(=O)Nc1nc2cc(Oc3cccc(NC(=O)Nc4cc(C(F)(F)F)ccc4F)c3)ccc2[nH]1", -0.86],
  ["Fc1cccc(COc2ccc(Nc3ncnc4cc(-c5ccc[nH]5)sc34)cc2Cl)c1", 0.95],
  ["CC(C)=Cc1cccc2c1/C(=N/Nc1ccc(S(N)(=O)=O)cc1)C(=O)N2", 2.95]
]}

// next entry
Tested on Insulin receptor-related protein (Homo sapiens) (UniProt P14616), the item COC(=O)Nc1nc2cc(Oc3ccc(NC(=O)Nc4cccc(C(=O)O)c4)cc3)ccc2[nH]1 showed inhibition equal to 2.82

* * *

Each record here notes measured inhibition.
Biological target: Protein-tyrosine kinase 6 (Homo sapiens) (UniProt Q13882)
Sequence (Q13882 whole entry, looked up): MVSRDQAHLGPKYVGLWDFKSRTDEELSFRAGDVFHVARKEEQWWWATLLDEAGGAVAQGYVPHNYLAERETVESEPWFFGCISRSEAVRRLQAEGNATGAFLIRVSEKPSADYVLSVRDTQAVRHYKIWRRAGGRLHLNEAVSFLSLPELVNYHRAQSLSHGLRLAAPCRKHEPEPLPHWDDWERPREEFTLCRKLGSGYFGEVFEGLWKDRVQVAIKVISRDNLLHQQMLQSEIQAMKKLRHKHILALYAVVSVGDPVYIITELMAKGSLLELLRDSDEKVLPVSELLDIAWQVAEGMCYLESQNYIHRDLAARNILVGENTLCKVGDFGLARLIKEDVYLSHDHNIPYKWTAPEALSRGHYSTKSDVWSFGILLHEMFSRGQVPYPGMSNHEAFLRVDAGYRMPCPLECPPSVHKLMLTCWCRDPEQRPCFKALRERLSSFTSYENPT
Conditions: at 1 µM
Description: GSK_PKIS: BRK mean inhibition at 1 uM [Nanosyn]
Please respond with the number in % and leave the unit unwritten.

{"columns": ["Smiles input", "inhibition (%)"],
 "data": [
  ["Fc1cccc(COc2ccc(Nc3ncnc4sc(-c5cccs5)cc34)cc2Cl)c1", 2.02],
  ["[O-][S+]1CCN(Cc2ccc(-c3ccc4ncnc(Nc5ccc(OCc6ccccc6)c(F)c5)c4c3)o2)CC1", 6.21],
  ["COc1cc2ncn(-c3cc(O[C@H](C)c4ccccc4Cl)c(C(N)=O)s3)c2cc1OC", 3.6],
  ["CCc1cccc(NC(=O)Nc2ccc(Oc3ccc4nc(NC(=O)OC)[nH]c4c3)cc2)c1", 1.76],
  ["COc1ccc(-c2coc3ncnc(N)c23)cc1", 11.8],
  ["COc1cc(C)c(NC(=O)CN(C)C)cc1Nc1nc(Nc2cccc(F)c2C(N)=O)c2cc[nH]c2n1", 23.8],
  ["NS(=O)(=O)c1cccc(-c2ccc3c(NC(=O)C4CC4)n[nH]c3c2)c1", 0.49],
  ["O=C1NC(=O)C(c2ccc(Cl)cc2)=C1Nc1ccc(Cl)c(C(=O)O)c1", -1.29]
]}

// next entry
// inhibition value for CC(=O)Nc1cccc(C#Cc2cncnc2Nc2ccc(OCc3cccc(F)c3)c(Cl)c2)n1 : 1.12

* * *

Each record here notes measured inhibition.
Target: Fibroblast growth factor receptor 2 (Homo sapiens) (UniProt P21802);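 also: reported figure is a mean percent inhibition of FGFR2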
Sequence (P21802 22-821 limits assumed): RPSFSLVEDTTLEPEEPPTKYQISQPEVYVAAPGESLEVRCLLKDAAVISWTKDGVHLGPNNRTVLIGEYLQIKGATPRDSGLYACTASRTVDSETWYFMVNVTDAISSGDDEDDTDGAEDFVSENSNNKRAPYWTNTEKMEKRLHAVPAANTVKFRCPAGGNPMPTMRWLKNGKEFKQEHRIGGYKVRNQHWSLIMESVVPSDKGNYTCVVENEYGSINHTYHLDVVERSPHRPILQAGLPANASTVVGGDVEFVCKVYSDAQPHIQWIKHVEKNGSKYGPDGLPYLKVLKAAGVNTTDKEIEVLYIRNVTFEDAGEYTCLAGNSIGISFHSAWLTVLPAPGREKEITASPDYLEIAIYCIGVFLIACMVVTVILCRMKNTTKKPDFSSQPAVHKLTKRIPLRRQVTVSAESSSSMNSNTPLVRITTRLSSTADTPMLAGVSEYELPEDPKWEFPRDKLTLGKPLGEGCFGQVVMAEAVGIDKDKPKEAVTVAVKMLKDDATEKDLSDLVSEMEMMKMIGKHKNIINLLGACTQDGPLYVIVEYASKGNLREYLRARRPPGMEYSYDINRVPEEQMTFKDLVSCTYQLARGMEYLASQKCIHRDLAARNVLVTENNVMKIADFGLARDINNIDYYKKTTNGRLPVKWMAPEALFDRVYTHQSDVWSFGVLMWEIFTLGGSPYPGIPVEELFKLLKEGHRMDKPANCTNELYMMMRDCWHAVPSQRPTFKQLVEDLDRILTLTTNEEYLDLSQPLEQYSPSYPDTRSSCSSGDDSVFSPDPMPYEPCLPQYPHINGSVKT
Conditions: at 1 µM
Please respond with the number in % and leave the unit unwritten.

Worked set:
{"columns": ["Smiles input", "Value unit", "inhibition"],
 "data": [
  ["O=C(Nc1n[nH]c2nc(-c3ccco3)c(Br)cc12)C1CC1", "%", 7.9],
  ["COc1ccc(COc2ccc(Cc3cnc(N)nc3N)cc2OC)cc1", "%", 6.83],
  ["CN1CCC(C(=O)Nc2n[nH]c3nnc(-c4ccccc4)cc23)CC1", "%", 5.58],
  ["COc1ccc(-c2ccncc2)cc1C(N)=O", "%", 8.69],
  ["CCn1c(-c2nonc2N)nc2c(C#CC(C)(C)O)nc(OC[C@@H](N)c3ccccc3)cc21", "%", 0.85]
]}

// next entry
// inhibition value for CN(C)c1cc2c(Nc3ccc4nc(Cc5ccccc5)[nH]c4c3)ncnc2cn1 : 10.4
